# EXPERIMENTAL_TARGET: HuR (Homo sapiens, UniProt Q15717)
# Construct: expressed in transfected cells; host or cells: U251 glioma cells, doxycycline-inducible constructs
# Sequence (Q15717 whole entry): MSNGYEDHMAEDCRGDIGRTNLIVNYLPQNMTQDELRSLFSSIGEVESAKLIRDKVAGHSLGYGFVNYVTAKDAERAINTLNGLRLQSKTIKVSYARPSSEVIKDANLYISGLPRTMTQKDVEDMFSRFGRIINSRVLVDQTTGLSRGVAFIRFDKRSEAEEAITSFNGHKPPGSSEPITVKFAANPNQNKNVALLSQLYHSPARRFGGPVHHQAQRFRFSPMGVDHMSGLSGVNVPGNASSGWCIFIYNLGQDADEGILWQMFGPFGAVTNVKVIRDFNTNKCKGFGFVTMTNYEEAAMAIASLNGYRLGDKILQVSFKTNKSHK
# MEASUREMENT_NOTES: cell-based split firefly luciferase-HuR dimerization assay
# CONDITION_NOTES: U251 cells co-expressing HuR-Nluc and HuR-Cluc, 6 hours of treatment; read-out: HuR IC50
Property: IC50; scope: individual compounds

Past entries and their recorded results:
Cc1cc(-c2cnn3c(NC[C@H]4C[C@@](C)(O)C4)cc(Oc4cccnc4)nc23)ccc1C(=O)NC1CC1 :: > 100 µM
COc1ncccc1-c1cnn2ccc(N3CCN(C(=O)OC(C)C)CC3)nc12 :: > 50 µM
CN1CCN(Cc2ccc(-c3cnc4[nH]cc(-c5ccc6[nH]ccc6c5)c4c3)cc2)CC1 :: > 25 µM

Now for another entry.
Quick one: IC50 of "FC(F)(F)c1nnc2ccc(NCCc3c[nH]c4ccccc34)nn12" ?
> 100 µM

====

Property: pIC50; scope: individual compounds
# EXPERIMENTAL_TARGET: HuR (Homo sapiens)
# Construct: expressed in transfected cells; host or cells: U251 glioma cells, doxycycline-inducible constructs
# MEASUREMENT_NOTES: cell-based split firefly luciferase-HuR dimerization assay
# CONDITION_NOTES: split luciferase HuR dimerization assay, compounds administered for 6 hours; read-out: HuR IC50
pIC50: −log10 of the molar value.

Past entries and their recorded results:
CCN(c1ccc2ncc(-c3ccc4cn[nH]c4c3)n2n1)C1CCOCC1 :: < 4.30
CCCN(c1ccc2ncc(-c3ccc4cn[nH]c4c3)n2n1)C1CCOCC1 :: < 4.30
OCc1ccccc1-c1cnc2ccc(NC3CCOCC3)nn12 :: < 4.00

What is its pIC50 for HuR (Homo sapiens)? Entry: "Cc1nn(C)c2cc(-c3cnc4ccc(N(C)C5CCOCC5)nn34)ccc12"
< 4.30

What is its pIC50 for HuR (Homo sapiens)? Entry: "Cc1n[nH]c2cc(-c3cnc4ccc(N(C)C5CCOCC5)nn34)ccc12"
< 4.30

What is its pIC50 for HuR (Homo sapiens)? Entry: "CC(=O)Nc1cccc(-c2cnc3ccc(NC4CCOCC4)nn23)c1"
< 4.52

What is its pIC50 for HuR (Homo sapiens)? Entry: "c1cc2cn[nH]c2cc1-c1cnc2ccc(N(CC3CC3)C3CCOCC3)nn12"
< 4.30

What is its pIC50 for HuR (Homo sapiens)? Entry: "c1cc2cc(-c3cnc4ccc(NC5CCOCC5)nn34)ccc2o1"
< 4.52

What is its pIC50 for HuR (Homo sapiens)? Entry: "CN(c1ccc2ncc(-c3ccccc3)n2n1)C1CCOCC1"
4.64

====

# EXPERIMENTAL_TARGET: HuR (Homo sapiens, UniProt Q15717)
# Construct: expressed in transfected cells; host or cells: U251 glioma cells, doxycycline-inducible constructs
# MEASUREMENT_NOTES: cell-based split firefly luciferase-HuR dimerization assay
# CONDITION_NOTES: Concn 50 uM
# Procedure: The oncogenic activity of HuR is driven by subcellular localization into the cytoplasm and formation of multimers of HuR. […] The evaluated compounds at different concentrations and the corresponding vehicle as the control were administered for 6 hours. The luminescence signals were detected by using InfinitiM200 plate reader (TECAN, Morrisville, NC) in the presence of the luciferase substrate luciferin (D-Luciferin, potassium salt), which was purchased from GoldBio (St Louis, MO). […]
REPORTED_METRIC: HuR N/C Imax % Inh (%)
// units = %; emit number, no label

Past entries and their recorded results:
CC1(C)CC(Nc2ccc3ncc(-c4ccc5[nH]ncc5c4)n3n2)CCO1 (centres unmarked) [Compound 45] :: 92
CN1CCN(c2ccc3ncc(-c4ccc5[nH]ncc5c4)n3n2)CC1 [Compound 52] :: 90
Brc1cnc2ccc(NC3CCOCC3)nn12 [SRI-42219] :: 82

Quick one: HuR N/C Imax % Inh of CN(c1ccc2ncc(-c3ccc4cn[nH]c4c3)n2n1)C1CCOCC1 [Compound 19] ?
90

Quick one: HuR N/C Imax % Inh of c1cc2[nH]ncc2cc1-c1cnc2ccc(OC3CCOCC3)nn12 [Compound 57] ?
89

Quick one: HuR N/C Imax % Inh of FC1(F)CCC(Nc2ccc3ncc(-c4ccc5cn[nH]c5c4)n3n2)CC1 [Compound 23] ?
92

Quick one: HuR N/C Imax % Inh of CN(c1ccc2ncc(-c3ccc4nccn4c3)n2n1)C1CCOCC1 [Compound 18] ?
89

Quick one: HuR N/C Imax % Inh of CN(c1ccc2ncc(-c3cnc4[nH]ncc4c3)n2n1)C1CCOCC1 [Compound 55] ?
90

The measurements presented in this section are drawn from patent US12435091B2.
